- Assay Notes: in vivo
- Applied Conditions: 0.05 mg/kg
Recorded Endpoint: bioavailability

Field bioavailability (entry O=C(O)c1ccccc1C(=O)Nc1ccc(-c2ccccc2)cc1 ) reads ~22%

###

- Assay Notes: in vivo
- Applied Conditions: 0.05 mg/kg, Cmax
Recorded Endpoint: Cmax

Documented Cmax of O=C(O)c1ccccc1C(=O)Nc1ccc(-c2ccccc2)cc1 : ~100 nM

###

- Assay Notes: in vivo
- Applied Conditions: 0.05 mg/kg, Plasma Conc.
Recorded Endpoint: concentration at 1 h (µM)
Numbers only, in µM.

Entry O=C(O)c1ccccc1C(=O)Nc1ccc(-c2ccccc2)cc1 [AKT] ; concentration at 1 h = 0.134
